System: HCV replicon H/FL-Neo, genotype 1a full length construct, in Huh7 cells
Test: Secondary HCV replicon cell assay genotype 1a, antiviral activity
Format: cell-based
Conditions: Hepatitis C virus, Huh-7, 2-fold depression of intracellular HCV RNA
experimental readout: pEC50
One number for each entry, as −log10 of the molar value.

Sample records with pEC50:
O=C(Nc1cccc(F)c1)c1ccccc1O [Compound 3, N-(3-fluorophenyl)-2-hydroxybenzamide]: 6.38
CC(=O)Oc1ccc(Cl)cc1C(=O)Nc1ccc([N+](=O)[O-])cc1Cl: 7.00

Lab note: each compound below needs its pEC50 filled in.
1. COC(=O)c1ccc(NC(=O)c2ccccc2OC(C)=O)cc1 [Compound 44, methyl 4-(2-acetoxybenzamido)benzoate]
2. O=C(Nc1ncc([N+](=O)[O-])s1)c1ccccc1O [TIZ, tizoxanide, reference compound]
3. CC(=O)Oc1ccccc1C(=O)Nc1cc(C(F)(F)F)cc(C(F)(F)F)c1

OUT:
[6.52, 6.64, 6.10]

---

Assay: Cytotoxicity in 2.2.15 cells (neutral red dye uptake)
Format: cell-based
Details: human, nine daily doses
Assign CC50 at 9 days to each entry below.

Worked set:
CC(=O)Oc1ccccc1C(=O)Nc1ccc(F)c(F)c1 [Compound 55]: 48 µM
O=C(Nc1ncc([N+](=O)[O-])s1)c1ccccc1O [TIZ, tizoxanide, reference compound]: > 100 µM
CC(=O)Oc1ccccc1C(=O)Nc1ncc([N+](=O)[O-])s1 [NTZ, nitazoxanide, reference compound]: > 100 µM
O=C(Nc1cc(C(F)(F)F)ccc1Cl)c1ccccc1O [Compound 41]: > 100 µM
O=C(Nc1ccc(C(F)(F)F)cc1)c1ccccc1O [Compound 51]: > 100 µM

Hi there! I need CC50 at 9 days for each item below, if you can.
1. CC(=O)Oc1ccccc1C(=O)Nc1ccc(Cl)cc1 [Compound 38]
2. CC(=O)Oc1ccccc1C(=O)Nc1cc(C(F)(F)F)ccc1Cl [Compound 52]
3. Cc1cc([N+](=O)[O-])c(Cl)cc1NC(=O)c1ccccc1O [Compound 42]
4. CC(=O)Oc1ccccc1C(=O)Nc1ccc(Br)cc1 [Compound 39, 2-(4-bromophenylcarbamoyl)phenyl acetate]

OUT:
> 100 µM
59 µM
> 100 µM
> 100 µM

---

Test: Cytotoxicity in 2.2.15 cells (neutral red dye uptake)
Type: cell-based
Conditions: human, nine daily doses
Kindly state CC50 at 9 days for each of the entries shown.
One number for each entry, in µM.

CC(=O)Oc1ccccc1C(=O)Nc1ccc(Cl)c([N+](=O)[O-])c1: 52

Now consider a different molecule.
IN: Reported CC50 at 9 days for CC(=O)Oc1ccccc1C(=O)Nc1cc([N+](=O)[O-])ccc1Cl : what is it?
OUT: 65

---

Test: Primary HCV replicon cell assay, cytotoxicity (neutral red dye uptake)
Format: cell-based
Conditions: human, AVA5 HCV replicon cells (sub-genomic CON1, genotype 1b), 3 days of treatment
experimental readout: log10 of CC50 at 3 days (log10 of the value in µM)
# values: log10(CC50 at 3 days), units µM

Some molecules with known log10 of CC50 at 3 days results, for comparison:
O=C(Nc1ccccc1Cl)c1ccccc1O [Compound 23, N-(2-chlorophenyl)-2-hydroxybenzamide]: 1.86
Cc1cccc(C(=O)Nc2cccc(Cl)c2)c1O: 1.54
CC(=O)Oc1ccccc1C(=O)Nc1cc(C(F)(F)F)cc(C(F)(F)F)c1: 0.63
Cc1cccc(C(=O)Nc2cccc(F)c2)c1O: 1.60

Record log10 of CC50 at 3 days for all entries; do not skip any.
1. O=C(Nc1cccc([N+](=O)[O-])c1)c1ccccc1O [Compound 7, 2-hydroxy-N-(3-nitrophenyl)benzamide]
2. COC(=O)c1ccc(NC(=O)c2ccccc2OC(C)=O)cc1 [Compound 44, methyl 4-(2-acetoxybenzamido)benzoate]

OUT:
1.53
0.64

---

experimental readout: melting point

Some solved entries appear below for comparison.
O=C(Nc1ccc([N+](=O)[O-])cc1)c1ccccc1O: 233 °C
CC(=O)Oc1ccccc1C(=O)Nc1cccc(F)c1: 88.5 to 89.7 °C
O=C(Nc1cccc([N+](=O)[O-])c1)c1ccccc1O [Compound 7, 2-hydroxy-N-(3-nitrophenyl)benzamide]: 222 °C
Cc1cccc(C(=O)Nc2ccc(Cl)cc2)c1O: 159.6 to 161.6 °C
Cc1cccc(C(=O)Nc2cccc(F)c2)c1O: 143.8 to 144.8 °C

// batch mode: one melting point value per listed entry
1. Cc1cccc(C(=O)Nc2ccc(F)cc2)c1O
2. CC(=O)Oc1ccccc1C(=O)Nc1ccccc1S(C)(=O)=O
3. CS(=O)(=O)c1cccc(NC(=O)c2ccccc2O)c1
4. O=C(Nc1cccc(Br)c1)c1ccccc1O

OUT:
1: 144.8 to 145.8 °C; 2: 115 to 117 °C; 3: 210 to 212 °C; 4: 183.5 °C

Hi, could you look up melting point for each item in my list?
1. Cc1cccc(C(=O)Nc2ccccc2F)c1O
2. O=C(Nc1ccccc1Cl)c1ccccc1O [Compound 23, N-(2-chlorophenyl)-2-hydroxybenzamide]
3. Cc1cccc(C(=O)Nc2cccc(Br)c2)c1O
4. Cc1cccc(C(=O)Nc2ccccc2Cl)c1O
5. O=C(Nc1cc(C(F)(F)F)cc(C(F)(F)F)c1)c1ccccc1O
6. O=C(Nc1cccc(C(F)(F)F)c1)c1ccccc1O
7. Cc1cccc(C(=O)Nc2cccc([N+](=O)[O-])c2)c1O
8. O=C(O)c1ccccc1C(=O)Nc1ccc(F)cc1

OUT:
74.2 to 83.4 °C
168.1 to 168.8 °C
147.2 to 148.2 °C
99.8 to 100.4 °C
196 to 198 °C
188 to 190.6 °C
217.5 °C
167.3 °C

Items follow; give melting point for each.
1. O=C(Nc1ccccc1Br)c1ccccc1O [Compound 4, N-(2-bromophenyl)-2-hydroxybenzamide]
2. CS(=O)(=O)c1ccccc1NC(=O)c1ccccc1O
3. CC(=O)Oc1ccccc1C(=O)Nc1ccc(S(C)(=O)=O)cc1
4. Cc1cccc(C(=O)Nc2cccc(Cl)c2)c1O
5. CC(=O)Oc1ccccc1C(=O)Nc1cccc(S(C)(=O)=O)c1
6. CC(=O)Oc1ccccc1C(=O)Nc1cc(C(F)(F)F)cc(C(F)(F)F)c1

OUT:
["165.5 °C", "142 to 145 °C", "184 to 186 °C", "148.5 °C", "51 to 53 °C", "118 to 125 °C"]

IN: Could you tell me which melting point is on file for O=C(O)c1ccccc1C(=O)Nc1ccccc1Cl ?
OUT: 145.2 to 145.7 °C

---

System: HBV replication intermediates in 2.2.15 cells
Assay: HBV antiviral assay in 2.2.15 cells, replication intermediates (RI) HBV DNA
Format: cell-based
Details: Hepatitis B virus; HBV replication intermediates, 2.2.15 cells, nine daily doses; read-out: EC50 (RI)
experimental readout: pEC50
Give bare numbers, as −log10 of the molar value.

Some compounds with recorded pEC50:
CC(=O)Oc1ccccc1C(=O)Nc1ccc(Br)cc1 [Compound 39, 2-(4-bromophenylcarbamoyl)phenyl acetate]: 5.68
Cc1cc([N+](=O)[O-])c(Cl)cc1NC(=O)c1ccccc1O [Compound 42]: 6.17
CC(=O)Oc1ccccc1C(=O)Nc1ccc(I)cc1 [Compound 40, 2-(4-iodophenylcarbamoyl)phenyl acetate]: 6.14

IN: So what's the measured pEC50 for this one? CC(=O)Oc1ccccc1C(=O)Nc1ncc([N+](=O)[O-])s1 [NTZ, nitazoxanide, reference compound]
OUT: 6.23

---

Test system: HCV replicon H/FL-Neo, genotype 1a full length construct, in Huh7 cells
Assay: Secondary HCV replicon cell assay genotype 1a, antiviral activity
Format: cell-based
Conditions: Hepatitis C virus, Huh-7, 10-fold depression of intracellular HCV RNA
experimental readout: log10 of EC90 (log10 of the value in nM)
Please be aware that the numbers have been log10-transformed from EC90 in nM.

O=C(Nc1ncc([N+](=O)[O-])s1)c1ccccc1O [TIZ, tizoxanide, reference compound]: 3.00
CC(=O)Oc1ccccc1C(=O)Nc1ncc([N+](=O)[O-])s1 [NTZ, nitazoxanide, reference compound]: 3.04
O=C(Nc1ccc([N+](=O)[O-])cc1Cl)c1cc(Cl)ccc1O: 2.91
CC(=O)Oc1ccccc1C(=O)Nc1cc(C(F)(F)F)cc(C(F)(F)F)c1: 3.67
O=C(Nc1cccc(F)c1)c1ccccc1O [Compound 3, N-(3-fluorophenyl)-2-hydroxybenzamide]: 3.52
COC(=O)c1ccc(NC(=O)c2ccccc2OC(C)=O)cc1 [Compound 44, methyl 4-(2-acetoxybenzamido)benzoate]: 3.71
CC(=O)Oc1ccc(Cl)cc1C(=O)Nc1ccc([N+](=O)[O-])cc1Cl: 2.66

# evaluate next
IN: log10 of EC90 for O=C(Nc1cc(C(F)(F)F)ccc1Cl)c1ccccc1O ?
OUT: 2.39

---

Tested on: Huh7 cells containing H/FL-Neo replicon
Test: Secondary HCV replicon cell assay genotype 1a, cytotoxicity (neutral red dye uptake)
Type: cell-based
experimental readout: CC50 (µM)
Numbers only, in µM.

IN: Record request: CC50 value, item CC(=O)Oc1ccccc1C(=O)Nc1ncc([N+](=O)[O-])s1 [NTZ, nitazoxanide, reference compound]
OUT: 49
